test: Cytostatic effects on NHDF cells in the anti-HCMV cytopathogenicity test; type: cell-based, human; conditions: human, concentration at which no visible cytostatic effects on NHDF cells are evident vs untreated cell control
# thresholds on CC50 at 6 days define classes: I = under 20 µM, II = from 20 µM up to 50 µM, III = 50 µM and over

structure.notation	class.name
COc1c(N2CCC[C@H](CC(=O)O)C2)c(F)cc2c(=O)c(C(=O)NCc3ccc(OC(F)(F)F)cc3C)cn(CC(F)(F)F)c12	II

// return the class label for "COc1c(N2CCC(C(N)=O)CC2)c(F)cc2c(=O)c(C(=O)NCc3ccc(Cl)cc3Cl)cn(CC(F)(F)F)c12"
II

Which bin should I file "COc1c(N2CCC(C(N)=O)CC2)c(F)cc2c(=O)c(C(=O)NCc3ccc(C(F)(F)F)cc3C)cn(CC(F)(F)F)c12" under?
I

Quick check: band for "CCOc1c(N2CCC(C(=O)O)CC2)c(F)cc2c(=O)c(C(=O)NCc3ccc(OC(F)(F)F)cc3C)cn(CC(F)(F)F)c12"
III
